We begin with a simple list: items and their reported EC50.
tested on: Vesicular stomatitis virus; assay: Antiviral activity against vesicular stomatitis virus by CPE assay; type: functional, organism-based
# unit: µg/mL | format: bare number

| Given Smiles | EC50 [µg/mL] |
| --- | --- |
| NC(=O)c1ncn([C@@H]2O[C@H](CO)[C@@H](O)[C@H]2O)n1 | 10.3 |

--- query ---
Reported EC50 for Vesicular stomatitis virus, given Nc1ccn([C@@H]2CS[C@H](CO)[C@H]2F)c(=O)n1 ? 9.43

* * *

test system: Feline infectious peritonitis virus; test: Antiviral activity against FIP WSU; assay type: functional
Calls of active or inactive are those of the source. The rule behind the calls is not given here.

| Given Smiles | Activity |
| --- | --- |
| Nc1ncnc2c1ncn2[C@@H]1CS[C@H](CO)[C@H]1F | inactive |
| O=c1ccn([C@@H]2CS[C@H](CO)[C@H]2F)c(=O)[nH]1 | inactive |
| Cc1cn([C@@H]2CS[C@H](CO)[C@H]2F)c(=O)[nH]c1=O | inactive |
| Nc1ccn([C@@H]2CS[C@H](CO)[C@H]2F)c(=O)n1 | inactive |

* * *

system: Encephalomyocarditis virus; assay: Antiviral activity against encephalomyocarditis virus by CPE assay; format: functional, organism-based; details: Cardiovirus A
We begin with a simple list: items and their reported EC50.

Completed entries (count: 4):
| Given Smiles | EC50 |
| --- | --- |
| O=c1ccn([C@@H]2CS[C@H](CO)[C@H]2F)c(=O)[nH]1 | > 100 µg/mL |
| Nc1ccn([C@@H]2CS[C@H](CO)[C@H]2F)c(=O)n1 | > 14.5 µg/mL |
| Cc1cn([C@@H]2CS[C@H](CO)[C@H]2F)c(=O)[nH]c1=O | > 100 µg/mL |
| NC(=O)c1ncn([C@@H]2O[C@H](CO)[C@@H](O)[C@H]2O)n1 | 23.4 µg/mL |

--- query ---
Returns the measured EC50 for the input molecule. Input: Nc1ncnc2c1ncn2[C@@H]1CS[C@H](CO)[C@H]1F > 100 µg/mL

* * *

We begin with a simple list: items and their reported EC50.
system: Vesicular stomatitis virus; assay: Antiviral activity against vesicular stomatitis virus by CPE assay; assay type: functional, organism-based

Returns the measured EC50 for the input molecule. Input: Nc1ncnc2c1ncn2[C@@H]1CS[C@H](CO)[C@H]1F > 100 µg/mL

Also Cc1cn([C@@H]2CS[C@H](CO)[C@H]2F)c(=O)[nH]c1=O , if possible. > 100 µg/mL

Also O=c1ccn([C@@H]2CS[C@H](CO)[C@H]2F)c(=O)[nH]1 , if possible. > 100 µg/mL
